Test system: Klebsiella pneumoniae
Assay: Antibacterial activity against Klebsiella pneumoniae MTCC 109 assessed as growth inhibition by agar streak dilution method
Type: functional
Can you tell me MIC for the items I'm about to list?
One number for each entry, in µg/mL.

O=C(CSc1nnc(-c2cc3ccccc3oc2=O)o1)Nc1ccc(I)cc1
100
O=C(CSc1nnc(-c2cc3ccccc3oc2=O)o1)Nc1nc2ccc(Br)cc2s1
100
O=C(CSc1nnc(-c2cc3ccccc3oc2=O)o1)Nc1ccc(F)cc1
100

Please go through the list and note MIC for each compound.
1. CCOc1ccc(NC(=O)CSc2nnc(-c3cc4ccccc4oc3=O)o2)cc1
2. COc1ccc(NC(=O)CSc2nnc(-c3cc4ccccc4oc3=O)o2)cc1
3. O=C(CSc1nnc(-c2cc3ccccc3oc2=O)o1)Nc1nc2ccc([N+](=O)[O-])cc2s1
4. O=C(O)c1cn(C2CC2)c2cc(N3CCNCC3)c(F)cc2c1=O [CIPROFLOXACIN]
5. Cc1ccc2nc(NC(=O)CSc3nnc(-c4cc5ccccc5oc4=O)o3)sc2c1

(A)
1. 100
2. 100
3. 50
4. 0.78
5. 100

Where these numbers come from: ChEMBL document CHEMBL3044664
